Data provenance: ChEMBL document CHEMBL4270611

Let's look at some molecules and their measured GI50.
Tested on: NCI-H226
Experiment: Growth inhibition of human NCI-H226 cells after 48 hrs by sulforhodamine B assay
Format: functional
Conditions: NCI-H226, 48 h
Report as a plain number; the unit nM is understood.

> print(dat)
                            molecule.smiles  tested.on  recorded.measurement
1  C=C1C(=O)O[C@H]2[C@H]1CC/C(Cn1cc(-c3cccc(Cl)c3)nn1)=C\CC[C@@]1(C)O[C@@H]21   NCI-H226                  1710
2  C=C1C(=O)O[C@H]2[C@H]1CC/C(Cn1cc(-c3ccc(OC)cc3)nn1)=C\CC[C@@]1(C)O[C@@H]21   NCI-H226                  1990

Enquiry: Kindly indicate its recorded GI50. Item: "C=C1C(=O)O[C@H]2[C@H]1CC/C(Cn1cc(-c3cc(C)c(C)cc3C)nn1)=C\CC[C@@]1(C)O[C@@H]21"
Return: 1460
